Test system: SK-BR-3
Assay: Cytotoxicity against human SKBR3 cells assessed as cell viability at 12.5 uM after 72 hrs by MTS assay
Assay type: functional
Details: SK-BR-3, 72 h, read-out: Activity
Threshold-based label: viability at 12.5 µM under 80% gives 1.0, viability at 12.5 µM not under 80% gives 0.0.

[[record]]
structure_notation = "O=S1(=O)COC[C@@H](COCc2ccc(-c3ccc(CBr)cc3)cc2)N1"
class_label = 1.0


is_below(viability at 12.5 µM, 80%) for `O=S1(=O)COC[C@@H](COCc2ccccc2)N1` ?
0.0

Now consider `CN1[C@H](COCc2ccc(-c3ccccc3)cc2)COCS1(=O)=O` .
1.0

Try `CCCCCCCC/C=C\CCCCCCCCOC[C@@H]1COCS(=O)(=O)N1C` next.
1.0

Another molecule: `CCCCCCCC/C=C\CCCCCCCCOC[C@@H]1COCS(=O)(=O)N1Cc1ccccc1`
0.0

====

Tested on: SK-BR-3
Test: Cytotoxicity against human SKBR3 cells assessed as cell viability at 50 uM after 72 hrs by MTS assay
Format: functional
Conditions: SK-BR-3, 72 h, read-out: Activity
PARAMETER_MEASURED: viability at 50 µM

[[record]]
structure_notation = "O=S1(=O)COC[C@@H](COCc2ccc(-c3ccc(CBr)cc3)cc2)N1"
target_entity = "SK-BR-3"
reported_measurement = "10%"


Please examine the following record next.
Quick one: viability at 50 µM of `O=S1(=O)COC[C@@H](COCc2ccccc2)N1Cc1ccccc1` ?
83%

====

The following compounds are shown together with reported viability at 50 µM values.
Test system: SK-BR-3
Assay: Cytotoxicity against human SKBR3 cells assessed as cell viability at 50 uM after 72 hrs by MTS assay
Format: functional
Details: SK-BR-3, 72 h, read-out: Activity
Write the answer as a number in %, unit excluded.

[[record]]
structure_notation = "CN1[C@H](COCc2ccccc2)COCS1(=O)=O"
readout_unit = "%"
reported_measurement = 83

[[record]]
structure_notation = "CCCCCCCC/C=C\\CCCCCCCCOC[C@@H]1COCS(=O)(=O)N1C"
readout_unit = "%"
reported_measurement = 65

[[record]]
structure_notation = "COc1cccc(COC[C@@H]2COCS(=O)(=O)N2Cc2ccccc2)c1"
readout_unit = "%"
reported_measurement = 96

[[record]]
structure_notation = "O=C(OC[C@@H]1COCS(=O)(=O)N1Cc1ccccc1)c1ccccc1"
readout_unit = "%"
reported_measurement = 89


Suppose we examine the compound `O=S1(=O)COC[C@@H](COCc2ccccc2)N1` ; what viability at 50 µM value has been reported?
80

====

Documented viability at 6.25 µM across a set of compounds
System: SK-BR-3
Experiment: Cytotoxicity against human SKBR3 cells assessed as cell viability at 6.25 uM after 72 hrs by MTS assay
Type: functional
Conditions: SK-BR-3, 72 h, read-out: Activity
Number first, unit second: that is the form wanted.

[[record]]
structure_notation = "O=S1(=O)COC[C@H](COCc2ccc(-c3ccc(CBr)cc3)cc2)N1"
reported_measurement = "99%"

[[record]]
structure_notation = "O=S1(=O)COC[C@@H](COCc2ccccc2)N1"
reported_measurement = "100%"

[[record]]
structure_notation = "CCCCCCCC/C=C\\CCCCCCCCOC[C@H]1COCS(=O)(=O)N1Cc1ccccc1"
reported_measurement = "71%"

[[record]]
structure_notation = "COc1cccc(COC[C@@H]2COCS(=O)(=O)N2Cc2ccccc2)c1"
reported_measurement = "100%"

[[record]]
structure_notation = "O=S1(=O)COC[C@@H](COCc2ccccc2)N1Cc1ccccc1"
reported_measurement = "89%"

[[record]]
structure_notation = "O=S1(=O)COC[C@H](COCc2ccccc2)N1"
reported_measurement = "100%"


Next compound, please.
Would you mind telling me what viability at 6.25 µM value was observed for `O=S1(=O)COC[C@H](COCc2ccccc2)N1Cc1ccccc1` ?
81%
